Sourced from patent US20250049812A1

- protocol_summary: Study of oral pharmacokinetics in rats
- run_conditions: rat, in vivo, male SD rats, p.o., 5 mg/kg, read-out: AUC0-8
readout: AUC(0-t) (ng·h/mL)

a. CN1C(=O)C(NC(=O)c2nnc(Cc3ccccc3)[nH]2)Cc2cn(-c3ncccc3C(F)(F)F)c3cccc1c23 (racemic) [T-40]
b. CN1C(=O)[C@@H](NC(=O)c2nnc(Cc3ccccc3)[nH]2)Cc2cn(-c3ncccc3C(F)(F)F)c3cccc1c23 [T-96]
c. CN1C(=O)[C@@H](NC(=O)c2nnc(Cc3ccccc3)[nH]2)Cc2cn(-c3ncccc3OC(F)F)c3cccc1c23 [T-112]
Req: // sort entries: AUC(0-t), high to low Put the labels in the requested order and list them out.
Resp: a, b, c
(a: 9040 ng·h/mL, b: 4900 ng·h/mL, c: 1700 ng·h/mL)
